Target: T1, Recombinant in-house Human FcRn protein (human, UniProt P55899 24-297; P61769 21-119, limits assumed)
T1 construct: also called huFCRN; HuFcRn
T1 sequence (P55899 24-297 limits assumed, chain 1 of 2): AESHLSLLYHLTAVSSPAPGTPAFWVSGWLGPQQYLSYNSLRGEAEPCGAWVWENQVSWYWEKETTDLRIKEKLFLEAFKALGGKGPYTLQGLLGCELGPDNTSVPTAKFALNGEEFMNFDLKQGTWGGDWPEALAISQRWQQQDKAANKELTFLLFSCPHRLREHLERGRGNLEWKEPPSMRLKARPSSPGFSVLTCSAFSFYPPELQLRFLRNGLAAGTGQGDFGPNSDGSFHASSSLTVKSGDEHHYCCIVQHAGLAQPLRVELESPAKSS
T1 sequence (P61769 21-119 limits assumed, chain 2 of 2): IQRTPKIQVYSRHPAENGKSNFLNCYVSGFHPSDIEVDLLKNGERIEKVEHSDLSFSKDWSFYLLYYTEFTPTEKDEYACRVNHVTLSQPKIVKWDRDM
Experiment: SPR, pH 7.4
property_label: Kd (nM)
Kindly answer with a numeric value in nM, unit omitted.

Use these answered entries as a reference point.
- binder: "Fc Fragment 20 (other, Human IgG1 Fc fragment; substitutions already in the entry) DKTHTCPPCPAPELLGGPSVFLFPPKPKDTLYITREPEVTCVVVDVSHEDPEVKFNWYVDGVEVHNAKTKPREEQYNSTYRVVSVLTVDHKDWLNGKEYKCKVSNKALPAPIEKTISKAKGQPREPQVYTLPPSRDELTKNQVSLTCLVKGFYPSDIAVEWESNGQPENNYKTTPPVLDSDGSFFLYSKLTVDKSRWQQGNVFSCSVMHEALKYHYTQKSLSLSPG"
  units_symbol: "nM"
  Kd: 290
- binder: "Fc Fragment 13 (other, Human IgG1 Fc fragment; substitutions already in the entry) DKTHTCPPCPAPELLGGPSVFLFPPKPKDTLYITREPEVTCVVVDVSHEDPEVKFNWYVDGVEVHNAKTKPREEQYNSTYRVVSVLTVLHQDWLNGKEYKCKVSNKALPAPIEKTISKAKGQPREPQVYTLPPSRDELTKNQVSLTCLVKGFYPSDIAVEWESNGQPENNYKTTPPVLDSDGSFFLYSKLTVDKSRWQQGNVFSCSVMHEALRFHYTQKSLSLSPG"
  units_symbol: "nM"
  Kd: 248

Attention now turns to another entry.
Entry Fc Fragment 15 (other, Human IgG1 Fc fragment; substitutions already in the entry) DKTHTCPPCPAPELLGGPSVFLFPPKPKDTLYITREPEVTCVVVDVSHEDPEVKFNWYVDGVEVHNAKTKPREEQYNSTYRVVSVLTVDHQDWLNGKEYKCKVSNKALPAPIEKTISKAKGQPREPQVYTLPPSRDELTKNQVSLTCLVKGFYPSDIAVEWESNGQPENNYKTTPPVLDSDGSFFLYSKLTVDKSRWQQGNVFSCSVMHEALKFHYTQKSLSLSPG — recorded Kd = 291

Data origin, for the record: patent US20250152704A1
